# maps each entry to its TGI
system: SW-620 colon; assay: NCI tumour cell line growth inhibition, 48 h

N#Cc1c(=O)c2ccccc2n2c1[nH]c1ccccc12 : > 100 µM
N#CC1C(=O)SC2c3ccccc3C(=O)c3ccccc3C12 (stereo not given) : > 10 µM
O=C1c2ccccc2CN1c1ccc(OCCN2CCCCC2)cc1 : > 10 µM
Cn1c(=O)n2n(c1=O)C(S(=O)(=O)c1ccccc1)C2 (stereo not given) : > 100 µM
O=C1C=CC(=O)C12CCc1ccccc12 : > 100 µM

Qu. Quick check: TGI of COC(=O)c1cc2c3ccccc3n3c(=O)c4cc5ccccc5nc4c(n1)c23 ?
Ans. > 100 µM

Qu. Which value of TGI has been reported for COc1ccc(NC(=O)CC/C(CC(=O)C(C)(C)C)=N\NC(=O)C(=O)NN)cc1 in the records?
Ans. > 100 µM

* * *

test system: KM12 colon; assay: NCI tumour cell line growth inhibition, 48 h
Listing: TGI of selected compounds
Your answer is read as µM, so omit the unit and give the number.

Examples with answers:
CC(=O)NC1=C(NC(C)(C)C)C(=O)c2ccccc2C1=O : 92.9
COC(=O)c1ccc(NC(=O)O/N=C(\Cl)C(C)C)cc1 : 30.2

Now for another entry.
Qu. // query TGI value for entry CCCCCCCCCCCCCCCCCCN(C)C(COC)COP(=O)([O-])OCC[N+](C)(C)C (stereo unspecified)
Ans. 3.2

* * *

tested on: MOLT-4 leukemia; experiment: NCI tumour cell line growth inhibition, 48 h; in the data active = GI50 below about 0.43 µM; inactive = the rest
Parameter call: string, one of active, inactive

COC(=O)c1cc2c3ccccc3n3c(=O)c4cc5ccccc5nc4c(n1)c23 : inactive
Cc1ccc(Cc2cnc(NC(=O)/C=C/c3cccc(C)c3)s2)cc1 : active
CC(C)[O-].CC(C)[O-].O=C1C=C([O-])C(=O)c2ccccc21.O=C1C=C([O-])C(=O)c2ccccc21.[Ti+4] : inactive
O=C1NC(=O)C(c2ccccc2Cl)=C1Nc1cc(Cl)c(O)c(Cl)c1 : inactive
Cc1cc(O)cc2c1[C@]1(C)CCC3C(C)(C)CCC[C@]3(C)[C@H]1C2 (some centres not stated) : inactive
COc1cc2ncn(-c3cc(O[C@@H](C)c4ccccc4Cl)c(C(N)=O)s3)c2cc1OC : inactive
Cc1nc2sc(C(=O)Nc3cccc4ccccc34)c(N)c2cc1C(O)c1ccccc1 (configuration not stated) : active
COc1ccc(-c2cc(-c3cccn3C)c(C#N)c(=O)[nH]2)cc1OC : inactive
C=C1C(=O)O[C@H]2[C@H]1CC/C(COC(=O)c1cc3ccccc3o1)=C\CC[C@@]1(C)O[C@@H]21 : inactive
N#CC1=C(N)Oc2c(ccc3ccccc23)C1c1ccccc1 (configuration not stated) : active

Qu. Can you look up the reported call for CCN(Cc1ccccc1)c1ccc(CO)c(Cl)c1 for me?
Ans. inactive

Qu. Please indicate how the test categorized CC(C)C[C@H](NC(=O)Cn1ccc(NCc2ccccc2)cc1=O)B(O)O .
Ans. active

* * *

tested on: NCI-H460 lung; experiment: NCI tumour cell line growth inhibition, 48 h
List of TGI values.
Your answer should be a plain number; it is taken to be in µM.

// below: answered molecules
COc1ccc(NC([Se])=NC23CC4CC(CC(C4)C2)C3)cc1 : 10.7
COc1cc2c(cc1OC)-c1ccc3cc4c(cc3c1N(CCCn1ccnc1)C2)OCO4 : 11.3
CC1=C(C(=O)Nc2ccc(Cl)c(Cl)c2)C(c2cccc(Cl)c2)NC(=O)N1 (stereo not drawn) : 20.1

Proceeding to the next molecule to report its TGI.
Qu. TGI lookup needed for CCOC(=O)N1c2c(ccn2C)-c2ccn(C)c2N1C(=O)OCC , thanks.
Ans. 49.3
